Biological target: T1, monkey CD3ε protein (monkey, UniProt Q95LI5 22-117, limits assumed)
T1 sequence (looked up): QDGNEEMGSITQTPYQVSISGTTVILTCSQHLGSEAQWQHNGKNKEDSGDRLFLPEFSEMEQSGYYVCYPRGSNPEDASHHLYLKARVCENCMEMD
Experiment: ELISA, coated antigen
Measurement name: EC50
In your response, put the unit directly after the numeric value.

Record summary for 6-44.5-H1-L2 humanized antibody (antibody, human IgG1, kappa, V domains shown) VH: EVQLVQSGAEVKKPGSSVKVSCKASGHTFSSHIMHWVRQAPGQGLEWMGYINPNNDRTEYSEKFKGRVTITADKSTSTAYMELSSLRSEDTAVYYCAGEAYYSNSLYAMDYWGQGTTVTVSS VL: DIVMTQSPDSLAVSLGERATINCKSSQSLFNSRTRKNYLAWYQQKPGQSPKLLIYWASTRESGVPDRFSGSGSGTDFTLTISSLQAEDVAVYYCKQSYYLRTFGGGTKVEIKR : reported EC50 = 0.00947 pM

// data source = patent US20250136687A1
